Each item that follows carries a reported pIC50.
target: Keap1 Kelch domain (321-609) / TAMRA-labeled 16mer NRF2 peptide (ETGE motif) (Homo sapiens); construct: the Kelch domain (321-609) of Keap1 is used; experiment: NRF2-Keap1 FP Assay (Keap1 Kelch fluorescence polarization); conditions: 20 nM Keap1 (321-609), 8 nM Tamra labeled peptide
Sequence (Q14145 321-609): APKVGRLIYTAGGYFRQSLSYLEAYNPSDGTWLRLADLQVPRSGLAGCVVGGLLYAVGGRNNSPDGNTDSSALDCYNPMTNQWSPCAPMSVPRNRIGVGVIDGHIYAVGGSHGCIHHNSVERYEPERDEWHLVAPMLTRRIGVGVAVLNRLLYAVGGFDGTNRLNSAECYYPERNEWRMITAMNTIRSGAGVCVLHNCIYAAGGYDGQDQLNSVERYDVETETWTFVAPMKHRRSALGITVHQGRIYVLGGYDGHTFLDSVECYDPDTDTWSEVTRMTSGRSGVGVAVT
pIC50: −log10 of the molar value.
property.measured: pIC50

>>> print(df.to_string())
                                    compound        result
 0  Cc1c(OCC2CCCCC2)cccc1-c1cccc(-n2ncc(C(=O)O)c2[C@H]2C[C@@H]2c2cn(C)nn2)c1 (racemic) [Example 72]  6.00 to 7.00
 1  CC[C@@H]1CN(Cc2cccc(-c3cccc(-n4ncc(C(=O)O)c4[C@@H]4C[C@H]4c4cn(C)nn4)c3)c2)Cc2ccccc2O1 [Example 65]  7.00 to 8.00
 2  CCC[C@@H]1CCCCN1C(=O)c1cccc(-c2cccc(-n3ncc(C(=O)O)c3[C@H]3C[C@@H]3c3cn(CC)nn3)c2)c1 (racemic) [Example 201]  7.00 to 8.00
 3  CCC[C@@H]1CCCCN1C(=O)c1cccc(-c2cccc(-n3ncc(C(=O)O)c3C3CC3c3cn(C)nn3)n2)c1 (stereo partly shown) [Example 196]  7.00 to 8.00
 4  O=C(O)c1cnn(-c2cccc(-c3cccc(-n4ncc5c4CCC5)c3)c2)c1C1CC1 [Example 61]  6.00 to 7.00
 5  CN(CC1CC1)C(=O)c1cccc(-c2cccc(-n3ncc(C(=O)O)c3C3CC3)c2)c1F [Example 48]  6.00 to 7.00
 6  CCC[C@@H]1CCCCN1C(=O)c1cccc(-c2cccc(-n3nc(C)c(C(=O)O)c3C3CC3)c2)c1 [Example 203]  5.00 to 6.00
 7  C[C@H](Oc1cccc(-c2cccc(-n3ncc(C(=O)O)c3[C@@H]3C[C@H]3c3cn(C4CCC4)nn3)c2)c1)C1CCCCC1 (racemic) [Example 78]  7.00 to 8.00
 8  CN(C)C(=O)c1cccc(-c2cccc(-n3ncc(C(=O)O)c3C3CCCC3)c2)c1F [Example 1]  6.00 to 7.00
 9  C[C@H](Oc1cccc(-c2cccc(-n3ncc(C(=O)O)c3[C@@H]3C[C@H]3c3cn(C)nn3)c2)c1)C1CCCCCC1 [Example 73]  7.00 to 8.00
10  CCC[C@@H]1CCCCN1C(=O)c1cccc(-c2cccc(-n3nc(C)c(C(=O)O)c3C3CC3c3cn(C)nn3)c2)c1 (stereo partly shown) [Example 202]  7.00 to 8.00
11  COC(CC1CCCCC1)c1cccc(-c2cccc(-n3ncc(C(=O)O)c3C3CC3c3cn(C)nn3)c2)c1 (stereo not shown) [Example 216]  7.00 to 8.00
12  C[C@H](Oc1cccc(-c2cccc(-n3ncc(C(=O)O)c3[C@@H]3C[C@H]3c3cn(C4CCCCC4)nn3)c2)c1)C1CCCCC1 (racemic) [Example 84]  6.00 to 7.00
13  O=C(O)c1cnn(-c2cccc(-c3cccc(C(=O)N4C5CCCC4CCC5)c3F)c2)c1C1CC1 [Example 34]  7.00 to 8.00
14  O=C(O)c1cnn(-c2cccc(-c3cccc(C(=O)N(CCC(F)(F)F)CC4CC4)c3F)c2)c1C1CC1 [Example 23]  6.00 to 7.00
15  CCC[C@@H]1CCCCN1C(=O)c1cccc(-c2cc(C)cc(-n3ncc(C(=O)O)c3C3CC3c3cn(C)nn3)c2)c1 (stereo partly shown) [Example 154]  7.00 to 8.00
16  Cn1cc([C@@H]2C[C@H]2c2c(C(=O)O)cnn2-c2cccc(-c3cccc(OC(C4CCCCC4)C(F)(F)F)c3)c2)nn1 (mixture of isomers) [Example 157]  6.00 to 7.00
17  C[C@H](Oc1cccc(-c2cccc(-n3ncc(C(=O)O)c3[C@@H]3C[C@H]3CCCO)c2)c1)C1CCCCC1 (racemic) [Example 102]  5.00 to 6.00
18  CC1(C)CCCN(C(=O)c2cccc(-c3cccc(-n4ncc(C(=O)O)c4C4CC4)c3)c2F)C1 [Example 6]  7.00 to 8.00
